All figures here come from PubChem BioAssay (NCATS).

Readings of activation for the listed compounds
Tested target: Bile acid receptor (Homo sapiens) (UniProt Q96RI1)
Sequence (Q96RI1 whole entry, looked up): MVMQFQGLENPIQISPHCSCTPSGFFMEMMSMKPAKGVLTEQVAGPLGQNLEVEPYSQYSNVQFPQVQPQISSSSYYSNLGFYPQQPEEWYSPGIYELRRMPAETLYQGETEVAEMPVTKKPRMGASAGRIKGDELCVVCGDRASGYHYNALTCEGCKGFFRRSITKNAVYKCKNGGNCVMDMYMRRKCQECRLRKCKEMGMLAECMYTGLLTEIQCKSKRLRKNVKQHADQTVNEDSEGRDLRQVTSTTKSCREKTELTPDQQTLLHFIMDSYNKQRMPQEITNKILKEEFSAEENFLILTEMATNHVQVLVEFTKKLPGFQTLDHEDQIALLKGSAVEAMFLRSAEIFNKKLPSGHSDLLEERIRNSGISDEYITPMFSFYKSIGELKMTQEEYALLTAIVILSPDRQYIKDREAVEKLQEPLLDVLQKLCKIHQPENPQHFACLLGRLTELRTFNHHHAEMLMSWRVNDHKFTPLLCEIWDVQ
Method description: qHTS assay for small molecule agonists of farnesoid X receptor signaling (AID 588527);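 also: 0% = vehicle basal and 100% = reference agonist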
Recorded conditions: HEK293T FXR-UAS-bla, beta-lactamase ratio, 16 h; hits give high values
Results filed as inconclusive are left out.
Numbers only here, please. The scale is %.

| Compound | Display unit | Meas value |
| --- | --- | --- |
| CN(C)CCOCCN(C)C | % | -0.638 |
| Cn1c(=O)[nH]c(=O)n(C2CCCCC2)c1=O | % | 2.64 |
| CCCCCCCCCCCCOCC1CO1 (configuration not stated) | % | -0.164 |
| CN(C)CCCCCCN(C)C | % | -2.62 |
| O=C(O)CN(CCCN(CC(=O)O)CC(=O)O)CC(=O)O | % | 8.42 |
| Cn1c(=O)[nH]c(=O)n(C2CCC(O)CC2)c1=O (configuration not stated) | % | -4.56 |
| O=C(O)c1ccc2c(c1)C(=O)OC2=O | % | -5.89 |
| CCCCCCCCCCCC[N+](C)(C)[O-] | % | 8.79 |
| COC(C)=O | % | -0.0908 |
| C1CC[CH]([Sn]([CH]2CCCCC2)[CH]2CCCCC2)CC1 | % | 0.852 |

Documented activation of `O=C(NC(=O)c1c(F)cccc1F)Nc1ccc(Cl)cc1` : 1.72

###

Tested target: Peroxisome proliferator-activated receptor alpha (Homo sapiens) (UniProt Q07869)
Sequence (Q07869 whole entry, looked up): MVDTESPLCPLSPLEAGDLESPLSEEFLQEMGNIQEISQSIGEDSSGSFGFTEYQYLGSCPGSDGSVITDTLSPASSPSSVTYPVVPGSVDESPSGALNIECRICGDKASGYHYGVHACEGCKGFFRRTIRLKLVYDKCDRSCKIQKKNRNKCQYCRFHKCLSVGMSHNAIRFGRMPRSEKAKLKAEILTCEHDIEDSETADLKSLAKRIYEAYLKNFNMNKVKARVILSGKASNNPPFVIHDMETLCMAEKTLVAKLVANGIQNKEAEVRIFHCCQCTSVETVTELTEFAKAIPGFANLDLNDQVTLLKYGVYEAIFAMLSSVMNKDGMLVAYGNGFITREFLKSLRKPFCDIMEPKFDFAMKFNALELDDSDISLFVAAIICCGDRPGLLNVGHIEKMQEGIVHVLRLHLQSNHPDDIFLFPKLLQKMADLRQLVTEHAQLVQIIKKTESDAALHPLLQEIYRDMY
Method description: qHTS assay for small molecule agonists of the peroxisome proliferator-activated receptor alpha (PPARalpha) signaling pathway (AID 651778); also: % of control where 0% means no effect
Recorded conditions: PathHunter PPARalpha complementation, chemiluminescence, 6 h; hits give high values
Property name: max response (%)
Numbers only here, please. The scale is %.

Examples with answers:
| Compound | Tested target | Display unit | max response |
| --- | --- | --- | --- |
| Cc1nc(N(C)C)nc(OC(=O)N(C)C)c1C | Peroxisome proliferator-activated receptor alpha (Homo sapiens) (UniProt Q07869) | % | -0.626 |
| c1cc[n+]2c(c1)-c1cccc[n+]1CC2 | Peroxisome proliferator-activated receptor alpha (Homo sapiens) (UniProt Q07869) | % | -2.84 |

Documented max response of `CN(C)c1ccc(N=O)cc1` : -3.57

Documented max response of CCOP(=S)(Oc1cnc(C(C)(C)C)nc1)OC(C)C (stereo not drawn) : -0.258

Documented max response of `CCOP(=S)(OCC)SCn1nnc2ccccc2c1=O` : -0.264

Documented max response of `CNC(=O)N(C)c1nc2ccccc2s1` : -2.93

Documented max response of `CCN(CC)C(=O)SCc1ccc(Cl)cc1` : -1.35

Documented max response of CCNP(=S)(OC)O/C(C)=C/C(=O)OC(C)C (stereo not drawn) : -0.524

Documented max response of `CCOP(=O)(OCC)SCCSCC` : -1.58

Documented max response of `CC(=NC#N)N(C)Cc1ccc(Cl)nc1` : -1.88

###

Tested target: Peroxisome proliferator-activated receptor gamma (Homo sapiens) (UniProt P37231)
Sequence (P37231 whole entry, looked up): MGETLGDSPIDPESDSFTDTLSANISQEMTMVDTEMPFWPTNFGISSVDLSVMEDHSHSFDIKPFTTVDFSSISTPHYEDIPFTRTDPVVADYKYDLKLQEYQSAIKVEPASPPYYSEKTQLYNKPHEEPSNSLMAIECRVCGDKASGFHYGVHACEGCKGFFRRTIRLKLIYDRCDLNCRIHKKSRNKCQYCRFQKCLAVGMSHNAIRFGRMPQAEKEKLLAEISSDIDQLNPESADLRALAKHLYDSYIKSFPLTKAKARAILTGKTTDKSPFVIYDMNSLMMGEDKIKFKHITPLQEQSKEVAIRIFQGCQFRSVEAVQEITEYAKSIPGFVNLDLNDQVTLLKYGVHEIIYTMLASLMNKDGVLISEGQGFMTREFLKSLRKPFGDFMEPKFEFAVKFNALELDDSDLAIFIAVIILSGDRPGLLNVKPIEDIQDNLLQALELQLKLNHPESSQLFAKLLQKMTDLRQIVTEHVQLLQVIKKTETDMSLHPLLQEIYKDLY
Method description: qHTS assay for small molecule antagonists of peroxisome proliferator-activated receptor gamma signaling (AID 588537)
Recorded conditions: HEK293 PPARg-UAS-bla, beta-lactamase ratio, antagonist mode; series mostly up to 76.8 µM
Results filed as inconclusive are left out. Activity calls are given as the source filed them. Calls follow the shape of the dose curve; as a rule, active = well fitted inhibition curve with a large enough effect in the signal ratio, with a control signal flat (not every such curve was filed as active); inconclusive = small, poorly fitted or top-dose-only effect, or effect the other way, or a change in a side signal; inactive = flat fitted curve, though single readings scatter; the % refers to the signal ratio.
# valid calls are active, inactive; nothing else

Examples with answers:
| Molecule | Tested target | Group |
| --- | --- | --- |
| CC(C)(C)OOC(C)(C)c1ccc(C(C)(C)OOC(C)(C)C)cc1 | Peroxisome proliferator-activated receptor gamma (Homo sapiens) (UniProt P37231) | inactive |
| CCNS(=O)(=O)C(F)(F)C(F)(F)C(F)(F)C(F)(F)C(F)(F)C(F)(F)C(F)(F)C(F)(F)F | Peroxisome proliferator-activated receptor gamma (Homo sapiens) (UniProt P37231) | inactive |
| CCNC(=O)NC(=O)/C(C#N)=N/OC | Peroxisome proliferator-activated receptor gamma (Homo sapiens) (UniProt P37231) | inactive |
| COc1cc(OC)nc(NC(=O)NS(=O)(=O)c2cc(NC=O)ccc2C(=O)N(C)C)n1 | Peroxisome proliferator-activated receptor gamma (Homo sapiens) (UniProt P37231) | inactive |
| CCCOc1nn(C(=O)NS(=O)(=O)c2ccccc2C(=O)OC)c(=O)n1C | Peroxisome proliferator-activated receptor gamma (Homo sapiens) (UniProt P37231) | inactive |
| Cc1nn(-c2cc(NS(C)(=O)=O)c(Cl)cc2Cl)c(=O)n1C(F)F | Peroxisome proliferator-activated receptor gamma (Homo sapiens) (UniProt P37231) | inactive |

For `CC1(C)[C@H](C=C(Cl)Cl)[C@H]1C(=O)O[C@H](C#N)c1ccc(F)c(Oc2ccccc2)c1` , what call appears in the results of this test? inactive

For `COC(=O)c1ccccc1CS(=O)(=O)NC(=O)Nc1nc(OC)cc(OC)n1` , what call appears in the results of this test? inactive

For CC1(C)CCC(Cc2ccc(Cl)cc2)C1(O)Cn1cncn1 (centres undefined) , what call appears in the results of this test? inactive

For `CCOCn1c(-c2ccc(Cl)cc2)c(C#N)c(Br)c1C(F)(F)F` , what call appears in the results of this test? active

For `Cc1cc(C)nc(Nc2ccccc2)n1` , what call appears in the results of this test? inactive

For `Nc1nc(N)nc(N)n1` , what call appears in the results of this test? inactive

For `C=C(C)CN(CC)c1c([N+](=O)[O-])cc(C(F)(F)F)cc1[N+](=O)[O-]` , what call appears in the results of this test? inactive

For CCC(C)Nc1c([N+](=O)[O-])cc(C(C)(C)C)cc1[N+](=O)[O-] (centres undefined) , what call appears in the results of this test? inactive

For `CCCCCCCCCCCCN(C)C` , what call appears in the results of this test? inactive

For CCOP(=O)(NC(C)C)Oc1ccc(S(C)(=O)=O)c(C)c1 (centres undefined) , what call appears in the results of this test? inactive

For `CNC(=S)S` , what call appears in the results of this test? inactive

###

Readings of max response for the listed compounds
Tested target: Peroxisome proliferator-activated receptor alpha (Homo sapiens) (UniProt Q07869)
Method description: qHTS assay for small molecule agonists of the peroxisome proliferator-activated receptor alpha (PPARalpha) signaling pathway (AID 651778); also: % of control where 0% means no effect
Recorded conditions: PathHunter PPARalpha complementation, chemiluminescence, 6 h; hits give high values
Numbers only here, please. The scale is %.

| Compound | max response / % |
| --- | --- |
| CN(c1c(Br)cc(Br)cc1Br)c1c([N+](=O)[O-])cc([N+](=O)[O-])cc1C(F)(F)F | -2.57 |
| CNC(=O)O/N=C(\C)SC | -0.714 |
| CCCCOCN(C(=O)CCl)c1c(CC)cccc1CC | 0.0844 |
| CCOP(=O)(OCC)Oc1ccc([N+](=O)[O-])cc1 | -2.58 |
| COP(=S)(OC)Oc1ccc([N+](=O)[O-])c(C)c1 | -4.6 |
| CCC[CH2][Sn]([CH2]CCC)([O]C(C)=O)[O]C(C)=O | -2.27 |
| CC(C)(C)c1ccc(CSc2cnn(C(C)(C)C)c(=O)c2Cl)cc1 | -6 |
| c1ccc2c(c1)oc1ccccc12 | 0.628 |
| CNC(=S)S | -2.07 |
| CCCN(CC)CC1COC2(CCC(C(C)(C)C)CC2)O1 (stereo unspecified) | 0.269 |

Documented max response of FC(F)C(F)(F)OCC(Cn1cncn1)c1ccc(Cl)cc1Cl (stereo unspecified) : -0.725

Documented max response of CC(C1CC1)C(O)(Cn1cncn1)c1ccc(Cl)cc1 (stereo unspecified) : -1.34

###

Tested target: Thyroid hormone receptor beta (Homo sapiens) (UniProt P10828)
Sequence (P10828 whole entry, looked up): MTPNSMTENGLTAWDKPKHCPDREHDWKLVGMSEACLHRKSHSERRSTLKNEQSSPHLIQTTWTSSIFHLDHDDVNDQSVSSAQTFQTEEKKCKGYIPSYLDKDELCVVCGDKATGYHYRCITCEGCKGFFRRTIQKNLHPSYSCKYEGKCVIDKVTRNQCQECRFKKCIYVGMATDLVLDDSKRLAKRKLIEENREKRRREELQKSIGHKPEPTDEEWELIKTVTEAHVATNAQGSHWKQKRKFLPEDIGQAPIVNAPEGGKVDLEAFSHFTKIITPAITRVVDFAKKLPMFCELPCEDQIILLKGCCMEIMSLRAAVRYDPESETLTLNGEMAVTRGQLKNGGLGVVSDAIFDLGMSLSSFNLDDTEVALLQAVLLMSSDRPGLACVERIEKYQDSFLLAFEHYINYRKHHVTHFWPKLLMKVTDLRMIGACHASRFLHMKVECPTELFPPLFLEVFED
Method description: qHTS assay for small molecule agonists of thyroid hormone receptor beta signaling (AID 588545);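 also: 0% = DMSO only and 100% = 10 nM T3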
Recorded conditions: TR-UAS-bla GripTite HEK 293, beta-lactamase ratio, agonist mode, 18 h; series mostly up to 76.7 µM
Results filed as inconclusive are left out. The source made the active and inactive calls. The call rests on the fitted dose curve.
Property name: outcome

Examples with answers:
| Compound | Property name | Meas value |
| --- | --- | --- |
| Nc1cccc(Cl)c1Cl | outcome | inactive |
| OC(c1ccc(Cl)cc1)(c1cncnc1)c1ccccc1Cl (stereo unspecified) | outcome | inactive |
| FC(F)(F)c1ccc(OCCCOc2c(Cl)cc(OCC=C(Cl)Cl)cc2Cl)nc1 | outcome | inactive |
| CCOC(=O)[C@H](C)Oc1ccc(Oc2nc3ccc(Cl)cc3o2)cc1 | outcome | inactive |
| CCOP(=O)(OCC)Oc1cc(C)nc(C(C)C)n1 | outcome | inactive |
| C=CC1(C)OC(=O)N(c2cc(Cl)cc(Cl)c2)C1=O (stereo unspecified) | outcome | inactive |

outcome for Thyroid hormone receptor beta (Homo sapiens) (UniProt P10828) with input `Nc1ccc([N+](=O)[O-])cc1Cl` equals inactive

outcome for Thyroid hormone receptor beta (Homo sapiens) (UniProt P10828) with input `N#Cc1c[nH]cc1-c1cccc2c1OC(F)(F)O2` equals inactive

outcome for Thyroid hormone receptor beta (Homo sapiens) (UniProt P10828) with input `COc1cc(OC)nc(Sc2cccc(Cl)c2C(=O)O)n1` equals inactive

outcome for Thyroid hormone receptor beta (Homo sapiens) (UniProt P10828) with input `O=[N+]([O-])c1ccc(Oc2ccc(C(F)(F)F)cc2[N+](=O)[O-])cc1` equals inactive

outcome for Thyroid hormone receptor beta (Homo sapiens) (UniProt P10828) with input O=P(OCC(Br)CBr)(OCC(Br)CBr)OCC(Br)CBr (stereo unspecified) equals inactive

outcome for Thyroid hormone receptor beta (Homo sapiens) (UniProt P10828) with input `CSC1=N[C@@](C)(c2ccccc2)C(=O)N1Nc1ccccc1` equals inactive

outcome for Thyroid hormone receptor beta (Homo sapiens) (UniProt P10828) with input `O=[N+]([O-])Nc1nccn1Cc1ccc(Cl)nc1` equals inactive

outcome for Thyroid hormone receptor beta (Homo sapiens) (UniProt P10828) with input `CC(C)(C)C(=O)[C@H](Oc1ccc(Cl)cc1)n1cncn1` equals inactive

outcome for Thyroid hormone receptor beta (Homo sapiens) (UniProt P10828) with input `COCC(=O)N(c1c(C)cccc1C)N1CCOC1=O` equals inactive

outcome for Thyroid hormone receptor beta (Homo sapiens) (UniProt P10828) with input `C=CC(=O)NCO` equals inactive

outcome for Thyroid hormone receptor beta (Homo sapiens) (UniProt P10828) with input `COc1nn(C(=O)NS(=O)(=O)c2ccccc2OC(F)(F)F)c(=O)n1C` equals inactive

outcome for Thyroid hormone receptor beta (Homo sapiens) (UniProt P10828) with input `CCOc1ccc(C(C)(C)COCc2cccc(Oc3ccccc3)c2)cc1` equals inactive

outcome for Thyroid hormone receptor beta (Homo sapiens) (UniProt P10828) with input `C[N+]1(C)CCCCC1` equals inactive

outcome for Thyroid hormone receptor beta (Homo sapiens) (UniProt P10828) with input `O=S(=O)(O)C(F)(F)C(F)(F)C(F)(F)C(F)(F)C(F)(F)C(F)(F)F` equals inactive

outcome for Thyroid hormone receptor beta (Homo sapiens) (UniProt P10828) with input `CO/N=C(/C(=O)OC)c1ccccc1COc1ccccc1C` equals inactive

outcome for Thyroid hormone receptor beta (Homo sapiens) (UniProt P10828) with input `c1cc2c3c(cccc3c1)CC2` equals inactive

outcome for Thyroid hormone receptor beta (Homo sapiens) (UniProt P10828) with input `CCCCOCN(C(=O)CCl)c1c(CC)cccc1CC` equals inactive
